experimental_system: RORγ (UniProt P51449)
Sequence (P51449 1-518): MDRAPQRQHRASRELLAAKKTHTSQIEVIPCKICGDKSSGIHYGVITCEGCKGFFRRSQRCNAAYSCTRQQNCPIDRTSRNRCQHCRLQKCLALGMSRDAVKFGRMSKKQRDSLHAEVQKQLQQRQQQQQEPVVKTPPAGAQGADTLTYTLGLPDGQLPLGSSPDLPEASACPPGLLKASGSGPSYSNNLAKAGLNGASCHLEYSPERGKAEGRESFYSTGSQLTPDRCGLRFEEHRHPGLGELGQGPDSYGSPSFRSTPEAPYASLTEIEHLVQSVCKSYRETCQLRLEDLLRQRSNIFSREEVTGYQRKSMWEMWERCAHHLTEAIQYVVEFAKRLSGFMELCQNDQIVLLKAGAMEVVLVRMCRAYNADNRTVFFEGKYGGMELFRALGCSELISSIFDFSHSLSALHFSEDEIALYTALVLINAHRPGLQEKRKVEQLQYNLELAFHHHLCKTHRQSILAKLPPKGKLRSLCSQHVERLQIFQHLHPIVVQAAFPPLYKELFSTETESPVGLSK
assay_notes: RORγ Gal4 Reporter Gene Assay in 293T cells (firefly and renilla luciferase)
Assay type: cell-based, human
experimental_parameters: third value of the cell; Gal4 reporter gene assay in 293T cells, renilla normalised luciferase
property_measured: pIC50 (REN)
Kindly provide the number alone.

// worked examples, pIC50 (REN) included
molecule	pIC50 (REN)
Cc1c(C(=O)NC2CCOCC2)cc(-c2ccc(S(=O)(=O)NC(C)(C)C)c(C(F)(F)F)c2)n1CC1(F)CCCCC1	6.9
COC(=O)[C@H]1C[C@H](NC(=O)c2cc(-c3cc(C(C)(C)C)cc(C4(C)CC4)c3)n(CC3CCCCC3)c2C)C1	7.3
Cc1c(C(=O)NC2CCOCC2)cc(-c2ccc(S(=O)(=O)NC(C)(C)C)c(OC(F)F)c2)n1CC1CCCCC1	7.3
Cc1c(C(=O)N[C@H]2CCCOC2)cc(-c2ccc(S(=O)(=O)NC(C)(C)C)c(C(F)(F)F)c2)n1CC1CCCCC1	7.4
Cc1c(C(=O)NC2CC23CCOCC3)cc(-c2ccc(S(=O)(=O)NC(C)(C)C)c(C(C)(C)C)c2)n1CC1CCCCC1 (stereo not shown)	8.0
Cc1c(C(=O)NC2CCOCC2)cc(-c2ccc(S(=O)(=O)NC(C)(C)C)c3ncccc23)n1CC1CCCCC1	6.8

With those in mind, consider the next molecule.
Summary for this molecule, "Cc1c(C(=O)N2CC(O)C2)cc(-c2cc(C(C)(C)C)cc(C(C)(C)C)c2)n1CC1CCCCC1" : pIC50 (REN) is 6.8

* * *

experimental_system: RORγ ligand binding domain (LBD) (Homo sapiens)
Construct: made in house; host or cells: E. coli BL-21 (BL3), vector pDEST15
assay_notes: TR-FRET Activity Assay (ligand sensing, RORγ-LBD / coactivator peptide interaction, LANCE)
Format: biochemical
experimental_parameters: first value of the cell FRET/FF/REN; TR-FRET activity assay; read-out: pIC50 (FRET) (converted)
property_measured: IC50 (nM)
Hi! Could you send only the number? It should be in nM, unit omitted.

Cc1c(C(=O)NC2COC2)cc(-c2cc(C(C)(C)C)cc(C(C)(C)C)c2)n1S(=O)(=O)N1CCC2(CCCC2)C1 398
COC(=O)[C@H]1C[C@H](NC(=O)c2cc(-c3cc(C(C)(C)C)cc(C4(C)CC4)c3)n(CC3CCCCC3)c2F)C1 316
Cc1c(C(=O)N[C@H]2C[C@H](C(=O)O)C2)cc(-c2cc(C(C)(C)C)cc(C(F)(F)F)c2)n1CC1CCCCC1 1580
Cc1c(C(=O)NCC(C)(C)C(=O)NS(C)(=O)=O)cc(-c2cc(C(C)(C)C)c3c(c2)C2(CCO3)CC2)n1CC1CCCCC1 1580
Cc1c(C(=O)N2CC(C(C)(C)C(=O)O)C2)cc(-c2ccc(S(=O)(=O)NC(C)(C)C)c(C(F)(F)F)c2)n1CC1CCCCC1 631

Summary for this compound, "Cc1c(C(=O)NCCc2nn[nH]n2)cc(-c2ccc(S(=O)(=O)NC(C)(C)C)c(C(C)(C)C)c2)n1CC1CCCCC1" : IC50 is 1260

Summary for this compound, "Cc1c(C(=O)NC2CCOCC2)cc(-c2cc(C(=O)NC(C)(C)C)cc(C(C)(C)O)c2)n1CC1CCCCC1" : IC50 is 3980

* * *

experimental_system: RORγ (UniProt P51449)
assay_notes: RORγ Gal4 Reporter Gene Assay in 293T cells (firefly and renilla luciferase)
Assay type: cell-based, human
experimental_parameters: third value of the cell; Gal4 reporter gene assay in 293T cells, renilla normalised luciferase
This section presents compounds with their documented pIC50 (REN) values.
Kindly provide the number alone.

Cc1c(C(=O)NC2CCOCC2)cc(-c2cc(Cl)cc(C3(C)CC3)c2)n1CC1CCCCC1 7.1
Cc1c(C(=O)NCC(C)(C)C(=O)O)cc(-c2cc(C(=O)NC(C)(C)C)cc(C(C)(C)C)c2)n1CC1CCCCC1 6.9
Cc1c(C(=O)NCCCC(=O)O)cc(-c2cc(C(C)(C)C)cc(C(C)(C)C)c2)n1CC1CCCCC1 6.9

Summary for this compound, "Cc1c(C(=O)NCCC(C)(C)C(=O)O)cc(-c2ccc(S(=O)(=O)NC(C)(C)C)c(OC(F)(F)F)c2)n1CC1CCCCC1" : pIC50 (REN) is 7.5

Summary for this compound, "Cc1c(C(=O)NC2CCOCC2)cc(-c2ccc(S(=O)(=O)NC(C)(C)C)c(C(F)F)c2)n1CC1CCC1" : pIC50 (REN) is 6.9

Summary for this compound, "Cc1c(C(=O)NC[C@H]2CCCO2)cc(-c2cc(C(C)(C)C)c3c(c2)C2(CCO3)CC2)n1CC1CCCCC1" : pIC50 (REN) is 6.4

Summary for this compound, "Cc1c(C(=O)NCC(C)(C)O)cc(-c2cc(C(=O)N(C)C(C)(C)C)cc(C3(C)CC3)c2)n1CC1CCCCC1" : pIC50 (REN) is 7.4

* * *

experimental_system: UniProtKB P51449
assay_notes: RORγ Gal4 Reporter Gene Assay in 293T cells (firefly and renilla luciferase)
Assay type: cell-based, human
experimental_parameters: third value of the cell; Gal4 reporter gene assay in 293T cells, renilla normalised luciferase
This section presents molecules with their documented pIC50 (REN) values.
Kindly provide the number alone.

// worked examples, pIC50 (REN) included
molecule	pIC50 (REN)
Cc1c(C(=O)NCCCCCC(=O)O)cc(-c2cc(C(C)(C)C)cc(C(C)(C)C)c2)n1CC1CCCCC1	7.1
Cc1c(C(=O)NC2CCOCC2)cc(-c2ccc(S(=O)(=O)NC(C)(C)C)c(C(F)(F)F)c2)n1CC1CCC(F)(F)CC1	7.0
Cc1c(C(=O)NC2CCOCC2)cc(-c2ccc(NS(=O)(=O)C(C)(C)C)c(C(F)(F)F)c2)n1CC1CCCCC1	7.0
CCC(C)(C)NS(=O)(=O)c1ccc(-c2cc(C(=O)N[C@H]3C[C@H](C(=O)O)C3)c(C)n2CC2CCCCC2)c(Cl)c1C	7.7
Cc1c(S(=O)(=O)NC(C)(C)C)ccc(-c2cc(C(=O)NC3CCOCC3)c(C)n2CC2CCCCC2)c1Cl	7.9
Cc1c(C(=O)NCC2COCCN2C)cc(-c2cc(C(C)(C)C)c3c(c2)C2(CCO3)CC2)n1CC1CCCCC1 (stereo not shown)	5.7
Cc1c(S(=O)(=O)NC(C)(C)C)ccc(-c2cc(C(=O)NCC(C)(C)O)c(C)n2CC2CCCCC2)c1Cl	7.7
Cc1c(C(=O)N2CCC(C)(O)CC2)cc(-c2ccc(S(=O)(=O)NC(C)(C)C)c(C(C)(C)C)c2)n1CC1CCCCC1	6.9
Cc1c(C(=O)NC2COC2)cc(-c2cc(C(C)(C)C)c3c(c2)C2(CCO3)CC2)n1CC1CCCCC1	7.3
Cc1c(C(=O)N[C@H]2C[C@H](C(=O)O)C2)cc(-c2cc(OCC(C)(C)C)nc(C(C)(C)C)c2)n1CC1CCCCC1	7.6

Summary for this molecule, "Cc1c(C(=O)NC2CCOCC2)cc(-c2ccc(-c3ccnn3C(C)C)c(C(C)(C)O)c2)n1CC1CCCCC1" : pIC50 (REN) is 6.5

Summary for this molecule, "Cc1c(C(=O)NC2CCOCC2)cc(-c2ccc(S(=O)(=O)NC(C)(C)C)c(F)c2)n1CC1CCCCC1" : pIC50 (REN) is 6.7

Summary for this molecule, "Cc1c(C(=O)NC2COC2)cc(-c2ccc(C(=O)N(C)CC(C)(C)C)c(C(C)(C)C)c2)n1CC1CCCCC1" : pIC50 (REN) is 6.5

Summary for this molecule, "COCc1c(C(=O)NCC(C)(C)O)cc(-c2ccc(S(=O)(=O)NC(C)(C)C)c(C(C)(C)C)c2)n1CC1CCCCC1" : pIC50 (REN) is 6.8

Summary for this molecule, "Cc1c(C(=O)NC2CCOCC2)cc(-c2cc(C(F)(F)F)c(S(=O)(=O)NC(C)(C)C)cc2F)n1CC1CCCCC1" : pIC50 (REN) is 7.6

meta.source: patent US9815851B2
